Record type: pKi measurement. Applies to: Myeloid Cell Leukemia 1(Mcl-1) (Homo sapiens)
Convention used: pKi is expressed as -log10 of the molar concentration.

Lab book: pKi of C[C@@H]1[C@@H](C)C/C=C(\F)[C@H](C(=O)N(C)CCOC2CCOCC2)N2CCC[C@H]2CN2C[C@@]3(CCCc4cc(Cl)ccc43)COc3ccc(cc32)C(=O)NS1(=O)=O [Compound 35] noted as 10.18

Recorded result, C[C@@H]1[C@@H](C)C/C=C(\F)[C@H](C(=O)N(C)CCN2CCOCC2C(F)(F)F)N2CCC[C@H]2CN2C[C@@]3(CCCc4cc(Cl)ccc43)COc3ccc(cc32)C(=O)NS1(=O)=O (mixture of isomers) [Compound 50] , pKi: 9.84

Input COC1CN(C(=O)[C@H]2/C(F)=C/C[C@H](C)[C@@H](C)S(=O)(=O)NC(=O)c3ccc4c(c3)N(C[C@@H]3CCCN32)C[C@@]2(CCCc3cc(Cl)ccc32)CO4)C1 [Compound 25] . Output pKi: 10.14

pKi measured on C[C@@H]1[C@@H](C)C/C=C(\F)[C@H](C(=O)N2CC3(CSC3)C2)N2CCC[C@H]2CN2C[C@@]3(CCCc4cc(Cl)ccc43)COc3ccc(cc32)C(=O)NS1(=O)=O [Compound 15] = 9.79

Lab note: C[C@@H]1[C@@H](C)C/C=C(\F)[C@H](C(=O)N(C)CC2CCCOC2)N2CCC[C@H]2CN2C[C@@]3(CCCc4cc(Cl)ccc43)COc3ccc(cc32)C(=O)NS1(=O)=O (single isomer, unassigned) [Compound 65] gave pKi of 10.21

# pKi (molecule: C[C@@H]1[C@@H](C)C/C=C(\F)[C@H](C(=O)N2CCN(C)CC2)N2CCC[C@H]2CN2C[C@@]3(CCCc4cc(Cl)ccc43)COc3ccc(cc32)C(=O)NS1(=O)=O [Compound 13] ) is 10.23

* * *

Provide the reported AC50 of each item.
Test system: MOLP-8 human multiple myeloma cell line
Assay: Caspase-Glo 3/7 apoptosis induction assay in MOLP-8 cells
Format: cell-based
Conditions: Homo sapiens, MOLP-8, 2 h, caspase-3/7 activity, 2 hours at 37° C.; averaged over all runs on all batches; read-out: MOLP8 AC50
State just the number; it will be interpreted in nM.

The reported MOLP-8 human multiple myeloma cell line AC50 of C[C@@H]1[C@@H](C)C/C=C(\F)[C@H](C(=O)N(C)CCN2CCOCC2)N2CCC[C@H]2CN2C[C@@]3(CCCc4cc(Cl)ccc43)COc3ccc(cc32)C(=O)NS1(=O)=O is 80.1

Entry C[C@@H]1[C@@H](C)C/C=C(\F)[C@H](C(=O)N2C[C@@H]3OCCO[C@@H]3C2)N2CCC[C@H]2CN2C[C@@]3(CCCc4cc(Cl)ccc43)COc3ccc(cc32)C(=O)NS1(=O)=O under MOLP-8 human multiple myeloma cell line had AC50 of 169

Measured on MOLP-8 human multiple myeloma cell line, C[C@@H]1[C@@H](C)C/C=C(\F)[C@H](C(=O)N(C)CCN2CCOCC2C(F)(F)F)N2CCC[C@H]2CN2C[C@@]3(CCCc4cc(Cl)ccc43)COc3ccc(cc32)C(=O)NS1(=O)=O (mixture of isomers) has a documented AC50 of 175

Kindly note: MOLP-8 human multiple myeloma cell line, CO[C@@H]1CCN(C(=O)[C@H]2/C(F)=C/C[C@H](C)[C@@H](C)S(=O)(=O)NC(=O)c3ccc4c(c3)N(C[C@@H]3CCCN32)C[C@@]2(CCCc3cc(Cl)ccc32)CO4)C1 , AC50 value reported: 90.5

The observed AC50 for C[C@@H]1[C@@H](C)C/C=C(\F)[C@H](C(=O)N2CCOCC2)N2CC[C@H]2CN2C[C@@]3(CCCc4cc(Cl)ccc43)COc3ccc(cc32)C(=O)NS1(=O)=O when tested with MOLP-8 human multiple myeloma cell line stands at 346

Field AC50 (MOLP-8 human multiple myeloma cell line), entry C[C@@H]1[C@@H](C)C/C=C(\F)[C@H](C(=O)N(C)Cc2ncnn2C)N2CCC[C@H]2CN2C[C@@]3(CCCc4cc(Cl)ccc43)COc3ccc(cc32)C(=O)NS1(=O)=O : 537

AC50 value, target or system MOLP-8 human multiple myeloma cell line, for COCCN(CC1CCOCC1)C(=O)[C@H]1/C(F)=C/C[C@H](C)[C@@H](C)S(=O)(=O)NC(=O)c2ccc3c(c2)N(C[C@@H]2CCCN21)C[C@@]1(CCCc2cc(Cl)ccc21)CO3 : 33.4

Form field AC50 for item C[C@@H]1[C@@H](C)C/C=C(\F)[C@H](C(=O)N2C[C@H]3C[C@@H]2CO3)N2CCC[C@H]2CN2C[C@@]3(CCCc4cc(Cl)ccc43)COc3ccc(cc32)C(=O)NS1(=O)=O on MOLP-8 human multiple myeloma cell line: 180

Record C[C@@H]1[C@@H](C)C/C=C(\F)[C@H](C(=O)N(C)Cc2ccn(C)n2)N2CCC[C@H]2CN2C[C@@]3(CCCc4cc(Cl)ccc43)COc3ccc(cc32)C(=O)NS1(=O)=O / MOLP-8 human multiple myeloma cell line, AC50 recorded as 138
